Where do the numbers come from? From paper PMC7766327.

Target: pneumolysin (Ply) (Streptococcus pneumoniae serotype 2)
Construct: made in house; host or cells: E. coli BL21(DE3)
Sequence (Q04IN8 whole entry): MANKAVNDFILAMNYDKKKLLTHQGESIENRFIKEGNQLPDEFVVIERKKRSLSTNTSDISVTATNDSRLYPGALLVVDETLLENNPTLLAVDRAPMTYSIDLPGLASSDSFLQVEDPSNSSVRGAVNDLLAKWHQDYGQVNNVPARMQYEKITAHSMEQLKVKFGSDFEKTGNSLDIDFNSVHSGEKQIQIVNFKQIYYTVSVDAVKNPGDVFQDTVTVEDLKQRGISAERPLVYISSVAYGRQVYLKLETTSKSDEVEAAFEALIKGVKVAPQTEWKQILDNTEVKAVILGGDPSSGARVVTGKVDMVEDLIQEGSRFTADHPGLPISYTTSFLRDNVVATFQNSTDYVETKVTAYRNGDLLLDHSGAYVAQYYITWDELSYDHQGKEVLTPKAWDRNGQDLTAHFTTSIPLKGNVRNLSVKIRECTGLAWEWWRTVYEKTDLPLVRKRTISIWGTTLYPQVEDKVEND
Assay: Precipitation assay of pneumolysin-tannin interaction
Assay type: binding
Details: minimum precipitating concentration vs hemolysis IC50
Readout type: Fold higher precipitating concentration compared to hemolysis IC50
In your response, the unit should come after the numeric value.

[ask] Look up Fold higher precipitating concentration compared to hemolysis IC50: `O=C(O[C@@H]1O[C@@H]2COC(=O)c3cc(O)c(O)c(O)c3-c3c(cc(O)c(O)c3O)C(=O)O[C@H]2[C@H](OC(=O)c2cc(O)c(O)c(O)c2)[C@H]1OC(=O)c1cc(O)c(O)c(O)c1)c1cc(O)c(O)c(Oc2c(C(=O)O[C@H]3O[C@@H]4COC(=O)c5cc(O)c(O)c(O)c5-c5c(cc(O)c(O)c5O)C(=O)O[C@H]4[C@@H]4OC(=O)c5cc(O)c(O)c(O)c5-c5c(cc(O)c(O)c5O)C(=O)O[C@@H]34)cc(O)c(O)c2O)c1`
[reply] 150 fold

[ask] Look up Fold higher precipitating concentration compared to hemolysis IC50: `O=C(OC[C@H]1O[C@@H](OC(=O)c2cc(O)c(O)c(O)c2)[C@H](OC(=O)c2cc(O)c(O)c(O)c2)[C@@H](OC(=O)c2cc(O)c(O)c(O)c2)[C@@H]1OC(=O)c1cc(O)c(O)c(O)c1)c1cc(O)c(O)c(O)c1`
[reply] 770 fold

[ask] Look up Fold higher precipitating concentration compared to hemolysis IC50: O=C(O[C@H]1[C@@H]2OC(=O)c3cc(O)c(O)c(O)c3-c3c4cc(c(O)c3O)Oc3c(cc(O)c(O)c3O)C(=O)O[C@H]3C(O)O[C@@H]5COC(=O)c6cc(O)c(O)c(O)c6-c6c(cc(c(O)c6O)Oc6c(cc(O)c(O)c6O)C(=O)O[C@H]1C(O)O[C@@H]2COC4=O)C(=O)O[C@H]5[C@@H]3OC(=O)c1cc(O)c(O)c(O)c1)c1cc(O)c(O)c(O)c1 (stereo partly shown)
[reply] 9300 fold

[ask] Look up Fold higher precipitating concentration compared to hemolysis IC50: O=C1OCC2OC(=O)c3cc(O)c(O)c(O)c3-c3c(O)c(O)c(O)c4c3C(=O)OC(C2OC(=O)c2cc(O)c(O)c(O)c2-c2c1cc(O)c(O)c2O)C1OC(=O)c2c-4c(O)c(O)c(O)c2C1O (stereo not shown)
[reply] 3400 fold
